Provenance of the data: the RepoRT retention time repository

Test: Thermo Scientific Acclaim RSLC 120 C18, 100 × 2.1 mm, 2.2 µm, 30 °C, 0.2 to 0.48 mL/min, estimated dead time 1.1 min; A: 90% water + 10% methanol + 5 mM ammonium acetate; B: methanol + 5 mM ammonium acetate; gradient (min/%B) 0.1/1 3/39 14/99.9 16/99.9
Conditions: stereoisomer not certain
Here, each record is paired with measured LC retention time data.
Only the number, expressed in min, is required.

Use these answered entries as a reference point.
CC1=C(C(=O)Nc2ccccc2)S(=O)(=O)CCO1	5.57
CC1(C)SC2C(NC(=O)C(N)c3ccccc3)C(=O)N2C1C(=O)O (configuration not stated)	4.46
CCC(CC)OC1C=C(C(=O)O)CC(N)C1NC(C)=O (configuration not stated)	4.92
O=C(O)Cc1cccc2ccccc12	5.7
CCC(C)(CC)c1cc(NC(=O)c2c(OC)cccc2OC)on1	9.39

Input: // lookup LC retention time for NC(=O)N1c2ccccc2C(O)C(O)c2ccccc21 (configuration not stated)
Output: 6.64

Input: Follow-up entry: CCCCCc1cc(O)c2c(c1)OC(C)(C)C1CCC(C(=O)O)=CC21 (configuration not stated)
Output: 12

Input: Follow-up entry: COc1cc(S(=O)(=O)O)c(C)cc1N=Nc1c(O)ccc2cc(S(=O)(=O)O)ccc12
Output: 2.88

Input: Follow-up entry: CC(C(=O)O)c1ccc(N2Cc3ccccc3C2=O)cc1 (configuration not stated)
Output: 6.23

Input: Follow-up entry: CC(C)c1ccc(NC(N)=O)cc1
Output: 8.81

Input: Follow-up entry: CC(=O)Nc1ccc(S(=O)(=O)Nc2ncccn2)cc1
Output: 3.76

Input: Follow-up entry: CC1(C)CC1C(=O)NC(=CCCCCSCC(N)C(=O)O)C(=O)O (configuration not stated)
Output: 4.91

Input: Follow-up entry: CCNC1CC(C)S(=O)(=O)c2sc(S(N)(=O)=O)cc21 (configuration not stated)
Output: 4.63

Input: Follow-up entry: O=C1NS(=O)(=O)c2ccccc21
Output: 3.09

Input: Follow-up entry: COCCN(C(=O)C(=O)O)c1c(C)cccc1C
Output: 6.07

Input: Follow-up entry: CCC1(CCC(C)C)C(=O)NC(=O)NC1=O
Output: 7.9

Input: Follow-up entry: CCC(C(=O)O)C1CCC(C)C(C(C)C(O)C(C)C(=O)C(CC)C2OC3(C=CC(O)C4(CCC(C)(C5CCC(O)(CC)C(C)O5)O4)O3)C(C)CC2C)O1 (configuration not stated)
Output: 14.7

Input: Follow-up entry: CCc1ccc(CCOc2ccc(CC3SC(=O)NC3=O)cc2)nc1 (configuration not stated)
Output: 10.6

Input: Follow-up entry: NCC1(CC(=O)O)CCCCC1
Output: 4.08

Input: Follow-up entry: Cc1ccc(S(N)(=O)=O)cc1
Output: 4.79

Input: Follow-up entry: CC(=O)Nc1nnc(S(N)(=O)=O)s1
Output: 3.24

Input: Follow-up entry: CC(C)CN(CC(O)C(Cc1ccccc1)NC(=O)OC1COC2OCCC12)S(=O)(=O)c1ccc(N)cc1 (configuration not stated)
Output: 9.37

Input: Follow-up entry: CCCN(CCC)S(=O)(=O)c1ccc(C(=O)O)cc1
Output: 6.46

----------
Assay: Thermo Scientific Acclaim RSLC 120 C18, 100 × 2.1 mm, 2.2 µm, 30 °C, 0.2 to 0.48 mL/min, estimated dead time 1.1 min; A: 90% water + 10% methanol + 5 mM ammonium acetate; B: methanol + 5 mM ammonium acetate; gradient (min/%B) 0.1/1 3/39 14/99.9 16/99.9
Settings: stereoisomer not certain
Metric: LC retention time (min)
Only the number, expressed in min, is required.

Use these answered entries as a reference point.
CCC1OC(=O)C(C)C(OC2CC(C)(OC)C(O)C(C)O2)C(C)C(OC2OC(C)CC(N(C)C)C2O)C(C)(O)CC(C)C(=NOCOCCOC)C(C)C(O)C1(C)O (stereo not drawn)	11.5
COC1CCC(OC2CC(C3OC(C)(O)C(C)CC3C)OC2C2(C)CCC(C3(C)CCC4(CC(O)C(C)C(C(C)C5OC(O)(CC(=O)O)C(C)C(O)C5OC)O4)O3)O2)OC1C (stereo not drawn)	13.7
Oc1ccccc1-c1ccccc1	9.09
CCCCOc1ccc(CC(=O)NO)cc1	9.24
C=CCC1(C(C)C#CCC)C(=O)NC(=O)N(C)C1=O (stereo not drawn)	9.02

Input: // lookup LC retention time for S=c1[nH]c2ccccc2s1
Output: 6.58

----------
Here, each record is paired with measured LC retention time data.
Test: Thermo Scientific Acclaim RSLC 120 C18, 100 × 2.1 mm, 2.2 µm, 30 °C, 0.2 to 0.48 mL/min, estimated dead time 1.1 min; A: 90% water + 10% methanol + 5 mM ammonium acetate; B: methanol + 5 mM ammonium acetate; gradient (min/%B) 0.1/1 3/39 14/99.9 16/99.9
Details: stereoisomer not certain
Only the number, expressed in min, is required.

Use these answered entries as a reference point.
CCOC(=O)C1=CC(OC(CC)CC)C(NC(C)=O)C(N)C1 (stereo unspecified)	8.79
CC1=C(C(=O)Nc2ccccc2)SCCO1	7.42
COP(=S)(OC)Oc1ccc(S(N)(=O)=O)cc1	6.16
C#CC1(O)CCC2C3CCC4=CC(=O)CCC4=C3C=CC21CC (stereo unspecified)	9.64
O=C(O)c1cc(-c2ccccc2)nc2ccccc12	5.89

Input: // lookup LC retention time for CC1(C)OCC2OC3(C(=O)O)OC(C)(C)OC3C2O1 (stereo unspecified)
Output: 4.3

Input: Follow-up entry: CC(C(=O)O)c1ccc(C2CCCCC2)c2ccccc12 (stereo unspecified)
Output: 11.2

Input: Follow-up entry: CC1C=CC=CCCC=CC=CC=CC=CC(OC2OC(C)C(O)C(N)C2O)CC2OC(O)(CC(O)C(O)CCC(O)CC(O)CC(O)CC(=O)OC(C)C(C)C1O)CC(O)C2C(=O)O (stereo unspecified)
Output: 11.8

Input: Follow-up entry: CC12C=CC(=O)C=C1CCC1C2C(=O)CC2(C)C1CCC2(O)C(=O)CO (stereo unspecified)
Output: 8.31

Input: Follow-up entry: Cc1cccc(C)c1N(Cn1cccn1)C(=O)CS(=O)(=O)O
Output: 6.02

Input: Follow-up entry: CCOS(=O)(=O)O
Output: 1.52

----------
Test: Thermo Scientific Acclaim RSLC 120 C18, 100 × 2.1 mm, 2.2 µm, 30 °C, 0.2 to 0.48 mL/min, estimated dead time 1.1 min; A: 90% water + 10% methanol + 5 mM ammonium acetate; B: methanol + 5 mM ammonium acetate; gradient (min/%B) 0.1/1 3/39 14/99.9 16/99.9
Settings: stereoisomer not certain
Here, each record is paired with measured LC retention time data.
Only the number, expressed in min, is required.

Input: // lookup LC retention time for CC12CCC3c4ccc(O)cc4CCC3C1CCC2=O (stereo not drawn)
Output: 10.8

Input: Follow-up entry: O=C(O)c1ccccc1O
Output: 3.58

Input: Follow-up entry: O=C1CN=C(c2ccccc2)c2c(sc3c2CCCC3)N1
Output: 9.91

Input: Follow-up entry: CC(C)(C)Nc1nc(N)[nH]c(=O)n1
Output: 5.42

Input: Follow-up entry: CC(C(=O)O)c1ccc(C(=O)c2cccs2)cc1 (stereo not drawn)
Output: 8.96

Input: Follow-up entry: CC(N)C12CC3CC(CC(C3)C1)C2 (stereo not drawn)
Output: 3.19

----------
Here, each record is paired with measured LC retention time data.
Experiment: Thermo Scientific Acclaim RSLC 120 C18, 100 × 2.1 mm, 2.2 µm, 30 °C, 0.2 to 0.48 mL/min, estimated dead time 1.1 min; A: 90% water + 10% methanol + 5 mM ammonium acetate; B: methanol + 5 mM ammonium acetate; gradient (min/%B) 0.1/1 3/39 14/99.9 16/99.9
Details: stereoisomer not certain
Only the number, expressed in min, is required.

Use these answered entries as a reference point.
Cc1nnc(-c2ccccc2)c(=O)n1N	5.22
COc1cccc(C(=O)NN(C(=O)c2cc(C)cc(C)c2)C(C)(C)C)c1C	9.55
O=c1nccc[nH]1	5.01
CN(C)CCC=C1c2ccccc2COc2ccc(CC(=O)O)cc21	7.69
CCCCOc1cc(C(=O)NCCN(CC)CC)c2ccccc2n1	11.6

Next up:
Input: // lookup LC retention time for CCCCCCC(C)(C)c1ccc(C2CCCC(O)C2)c(O)c1 (stereo unspecified)
Output: 13.2

----------
Assay: Thermo Scientific Acclaim RSLC 120 C18, 100 × 2.1 mm, 2.2 µm, 30 °C, 0.2 to 0.48 mL/min, estimated dead time 1.1 min; A: 90% water + 10% methanol + 5 mM ammonium acetate; B: methanol + 5 mM ammonium acetate; gradient (min/%B) 0.1/1 3/39 14/99.9 16/99.9
Conditions: stereoisomer not certain
Could you please mark true for values of LC retention time below 9 min and false for values at or above it?

CC12CCC3c4ccc(O)cc4CCC3C1CC(O)C2O (configuration not stated)	true
O=S(=O)(O)c1ccc2ccccc2c1	true
O=C(O)c1ccccc1S	true
COC(=O)c1ccccc1S(=O)(=O)NC(=O)Nc1nc(C)nc(OC)n1	true
CCCCCCCCCCCCOS(=O)(=O)c1ccccc1	false
COC(=O)C(Cc1ccccc1)NC(=O)C(N)CC(=O)O (configuration not stated)	true
Cc1occc1C(=O)Nc1ccccc1	true
CCOC(=O)CSc1nc(C(C)(C)C)nn1C(=O)N(C)C	true
CS(=O)(=O)Nc1ccc([N+](=O)[O-])cc1Oc1ccccc1	true
CCCCc1oc2ccc(NS(C)(=O)=O)cc2c1C(=O)c1ccc(OCCCN(CCCC)CCCC)cc1	false

Input: Dear colleague, could you confirm whether LC retention time of COc1ccc(C(O)(c2cncnc2)C2CC2)cc1 (configuration not stated) falls below 9 min? Thanks.
Output: true
